I'd be grateful if you could share measured inhibition at 25 µM for these entries.
Molecular target: 5-lipoxygenase (Homo sapiens)
Construct: Blood is obtained in 50-100 ml quantities from male donors; endogenous in cells; host or cells: human whole blood (leukocytes) from male donors
Sequence (P09917 1-674): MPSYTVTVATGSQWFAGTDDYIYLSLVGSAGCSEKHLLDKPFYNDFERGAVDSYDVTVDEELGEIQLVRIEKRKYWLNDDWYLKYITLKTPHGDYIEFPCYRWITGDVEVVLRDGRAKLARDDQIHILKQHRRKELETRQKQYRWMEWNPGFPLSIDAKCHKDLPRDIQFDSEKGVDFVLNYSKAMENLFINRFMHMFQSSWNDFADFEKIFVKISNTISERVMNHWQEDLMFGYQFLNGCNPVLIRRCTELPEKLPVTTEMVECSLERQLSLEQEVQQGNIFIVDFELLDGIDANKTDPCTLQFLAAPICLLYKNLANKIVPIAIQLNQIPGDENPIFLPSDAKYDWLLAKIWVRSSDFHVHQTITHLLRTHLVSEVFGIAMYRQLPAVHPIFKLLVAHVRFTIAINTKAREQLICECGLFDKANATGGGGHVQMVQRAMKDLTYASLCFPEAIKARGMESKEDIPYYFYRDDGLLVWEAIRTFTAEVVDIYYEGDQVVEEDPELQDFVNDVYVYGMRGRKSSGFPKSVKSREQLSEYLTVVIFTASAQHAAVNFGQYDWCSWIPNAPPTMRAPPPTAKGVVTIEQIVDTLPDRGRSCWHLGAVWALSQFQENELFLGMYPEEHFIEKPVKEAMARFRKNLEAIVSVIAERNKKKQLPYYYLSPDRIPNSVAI
Test: inhibition of 5-lipoxygenase in human whole blood (LTB4)
Type: cell-based
Settings: 25 μM; human whole blood
Method: The assay of this Example measures the ability of the compounds tested to inhibit 5-lipxygenase in human whole blood. Blood is obtained in 50-100 ml quantities from male donors. White blood cell counts and differentials are made. Two ml of blood are placed in a 15 ml polypropylene test tube. […] The total eicosanoid level in 2 ml of blood is calculated and reported as ng/10^6 neutrophils. […] Drug effects are expressed as percent change form control values. […]
One number for each entry, in %.

C[C@H](C(=O)N(C)O)c1ccc2cc(OCc3nc4ccccc4o3)ccc2c1 [Example 47] ... 84
C[C@H](C(=O)N(C)O)c1ccc2cc(OCc3nc4ccccc4s3)ccc2c1 [Example 41, hydrate] ... 83
C[C@H](C(=O)O)c1ccc2cc(OCc3ccccn3)ccc2c1 [Example 42, hydrate] ... 11

Using the record for CC(C)(C(=O)O)c1ccc2cc(OCc3nc4ccccc4s3)ccc2c1 [Example 34] , report its inhibition at 25 µM.
13
